Origin of values: patent US20240091328A1

Provide the reported Experimental rank of each item.
tested on: IFN-γ; assay: In vivo peptide micro-library screening, IFN-γ ELISA of re-stimulated splenocytes relative to A5; design: species or system mice; details: rank among 100 micro-library peptides; IFN-γ on re-stimulation relative to A5; 5 peptides plus A5 with CPQ

# input Tell me measured Experimental rank for H6-SGPIGPPEI-ERR (HHHHHHSGPIGPPEIERR; CT48) please.
# output 70

# input Tell me measured Experimental rank for H6-AYVNATGEV-ERR (HHHHHHAYVNATGEVERR; CT13) please.
# output 95

# input Tell me measured Experimental rank for H6-SYIMAICGM-ERR [CT67] please.
# output 36

# input Tell me measured Experimental rank for H6-FPPQNMFEF-ERR [CT14] (HHHHHHFPPQNMFEFERR; CT14) please.
# output 98

# input Tell me measured Experimental rank for H6-KPFTICKYY-ERR (HHHHHHKPFTICKYYERR; CT88) please.
# output 34

# input Tell me measured Experimental rank for H6-KGPKRDEQC-ERR (HHHHHHKGPKRDEQCERR; CT2) please.
# output 65

# input Tell me measured Experimental rank for H6-KGPRNIQLD-ERR (HHHHHHKGPRNIQLDERR; CT57) please.
# output 48

# input Tell me measured Experimental rank for H6-IGQMLQTHF-ERR (HHHHHHIGQMLQTHFERR; CT84) please.
# output 49
